// data source = paper PMC6273125

- procedure.summary: Reducing activity of the DPPH stable free radical (RA%)
- experimental.context: DPPH 0.05 mM in ethanol; compound 100 μM; 60 min
Friendly reminder: RA%, 100 μM, 60 min below 30% is satisfied, at or above is not satisfied.

{"compound": "CC(=NNC(=O)c1ccccc1[N+](=O)[O-])c1c(O)c2ccccc2oc1=O", "class.assignment": "satisfied"}
{"compound": "CC(=NNC(=O)c1ccco1)c1c(O)c2ccccc2oc1=O", "class.assignment": "satisfied"}
{"compound": "CC(=NNC(=O)c1ccc(C)cc1)c1c(O)c2ccccc2oc1=O", "class.assignment": "satisfied"}
{"compound": "CC(=O)c1c(O)c2ccccc2oc1=O [compound 1, 3-Acetyl-4-hydroxycoumarin]", "class.assignment": "not satisfied"}
{"compound": "CC(=NNC(=O)c1ccncc1)c1c(O)c2ccccc2oc1=O", "class.assignment": "not satisfied"}
{"compound": "CC(=NNC(=O)c1ccc(Cl)cc1)c1c(O)c2ccccc2oc1=O", "class.assignment": "satisfied"}
{"compound": "CC(Cc1ccc(O)c(O)c1)C(C)Cc1ccc(O)c(O)c1 (centres unmarked) [NDGA, nordihydroguairetic acid, reference compound]", "class.assignment": "not satisfied"}

---

Collected IC50 values appear next to each entry.
- assayed.target: soybean lipoxygenase (LOX) (Glycine max)
- Sequence (P08170 1-839): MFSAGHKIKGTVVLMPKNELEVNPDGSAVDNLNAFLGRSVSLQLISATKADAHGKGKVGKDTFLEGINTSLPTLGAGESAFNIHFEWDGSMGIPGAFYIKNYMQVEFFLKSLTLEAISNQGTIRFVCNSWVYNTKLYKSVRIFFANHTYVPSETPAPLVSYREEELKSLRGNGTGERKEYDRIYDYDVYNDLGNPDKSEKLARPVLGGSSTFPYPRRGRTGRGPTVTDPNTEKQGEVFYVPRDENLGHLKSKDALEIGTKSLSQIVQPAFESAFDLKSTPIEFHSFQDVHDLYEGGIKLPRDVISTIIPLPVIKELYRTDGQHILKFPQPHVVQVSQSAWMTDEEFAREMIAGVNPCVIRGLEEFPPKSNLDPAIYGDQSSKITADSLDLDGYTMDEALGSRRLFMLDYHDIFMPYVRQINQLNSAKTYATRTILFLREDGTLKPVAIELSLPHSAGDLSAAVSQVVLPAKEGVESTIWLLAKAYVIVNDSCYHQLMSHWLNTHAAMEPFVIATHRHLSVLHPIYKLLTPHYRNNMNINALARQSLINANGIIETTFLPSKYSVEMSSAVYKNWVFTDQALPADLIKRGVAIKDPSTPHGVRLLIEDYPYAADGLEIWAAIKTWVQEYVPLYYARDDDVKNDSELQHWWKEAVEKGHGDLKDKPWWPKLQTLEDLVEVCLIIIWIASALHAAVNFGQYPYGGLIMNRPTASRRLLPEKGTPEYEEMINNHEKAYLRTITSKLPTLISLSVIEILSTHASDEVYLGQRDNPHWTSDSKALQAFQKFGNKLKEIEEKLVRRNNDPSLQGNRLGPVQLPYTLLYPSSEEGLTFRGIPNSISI

{"compound": "CC(=NNC(=O)c1ccco1)c1c(O)c2ccccc2oc1=O [2j]", "IC50 [µM]": 90}
{"compound": "CC(=NNC(=O)Cc1ccccc1)c1c(O)c2ccccc2oc1=O [2b]", "IC50 [µM]": 40}
{"compound": "CC(=NNC(=O)c1ccccc1)c1c(O)c2ccccc2oc1=O [2c]", "IC50 [µM]": 58}
{"compound": "CC(=NNC(=O)c1cccs1)c1c(O)c2ccccc2oc1=O [2k]", "IC50 [µM]": 43.5}

---

Collected RA%, 100 µM, 20 min values appear next to each entry.
- procedure.summary: Reducing activity of the DPPH stable free radical (RA%)
- experimental.context: DPPH 0.05 mM in ethanol; compound 100 µM; 20 min
recorded.endpoint: RA%, 100 µM, 20 min (%)

{"compound": "CC(=NNC(=O)Cc1ccccc1)c1c(O)c2ccccc2oc1=O [2b]", "measured.result": 25}
{"compound": "CC(=NNC(=O)c1ccccc1)c1c(O)c2ccccc2oc1=O [2c]", "measured.result": 25}
{"compound": "CC(=NNC(=O)c1ccccc1O)c1c(O)c2ccccc2oc1=O [2i]", "measured.result": 27}
{"compound": "CC(=O)c1c(O)c2ccccc2oc1=O [compound 1, 3-Acetyl-4-hydroxycoumarin]", "measured.result": 36}
{"compound": "CC(=NNC(=O)c1ccc(C)cc1)c1c(O)c2ccccc2oc1=O [2d]", "measured.result": 27}
{"compound": "CC(=NNC(=O)c1cccs1)c1c(O)c2ccccc2oc1=O [2k]", "measured.result": 25}
{"compound": "CC(=NNC(=O)c1ccc(O)cc1)c1c(O)c2ccccc2oc1=O [2f]", "measured.result": 24}
{"compound": "CC(Cc1ccc(O)c(O)c1)C(C)Cc1ccc(O)c(O)c1 (centres unmarked) [NDGA, nordihydroguairetic acid, reference compound]", "measured.result": 81}
{"compound": "CC(=O)NN=C(C)c1c(O)c2ccccc2oc1=O [2a]", "measured.result": 23}
{"compound": "CC(=NNC(=O)c1ccncc1)c1c(O)c2ccccc2oc1=O [2h]", "measured.result": 27}
{"compound": "CC(=NNC(=O)c1ccco1)c1c(O)c2ccccc2oc1=O [2j]", "measured.result": 25}
{"compound": "CC(=NNC(=O)c1ccccc1[N+](=O)[O-])c1c(O)c2ccccc2oc1=O [2l]", "measured.result": 27}
{"compound": "CC(=NNC(=O)c1ccc(N)cc1)c1c(O)c2ccccc2oc1=O [2g]", "measured.result": 27}
{"compound": "CC(=NNC(=O)c1ccc(Cl)cc1)c1c(O)c2ccccc2oc1=O [2e]", "measured.result": 27}

---

Collected RA%, 50 μM, 60 min values appear next to each entry.
- procedure.summary: Reducing activity of the DPPH stable free radical (RA%)
- experimental.context: DPPH 0.05 mM in ethanol; compound 50 μM; 60 min

{"compound": "CC(=NNC(=O)c1ccc(O)cc1)c1c(O)c2ccccc2oc1=O", "RA%, 50 μM, 60 min": "14 ± 1.2%"}
{"compound": "CC(=NNC(=O)c1ccc(N)cc1)c1c(O)c2ccccc2oc1=O", "RA%, 50 μM, 60 min": "16 ± 0.6%"}
{"compound": "CC(=O)c1c(O)c2ccccc2oc1=O [compound 1, 3-Acetyl-4-hydroxycoumarin]", "RA%, 50 μM, 60 min": "31± 0.3%"}
{"compound": "CC(=NNC(=O)c1ccccc1[N+](=O)[O-])c1c(O)c2ccccc2oc1=O", "RA%, 50 μM, 60 min": "10 ± 0.2%"}
{"compound": "CC(=NNC(=O)c1ccco1)c1c(O)c2ccccc2oc1=O", "RA%, 50 μM, 60 min": "8 ± 0.3%"}
{"compound": "CC(=NNC(=O)c1ccccc1O)c1c(O)c2ccccc2oc1=O", "RA%, 50 μM, 60 min": "10 ± 0.1%"}
{"compound": "CC(=NNC(=O)c1cccs1)c1c(O)c2ccccc2oc1=O", "RA%, 50 μM, 60 min": "9 ± 0.2%"}
{"compound": "CC(Cc1ccc(O)c(O)c1)C(C)Cc1ccc(O)c(O)c1 (centres unmarked) [NDGA, nordihydroguairetic acid, reference compound]", "RA%, 50 μM, 60 min": "83 ± 3.3%"}
{"compound": "CC(=NNC(=O)c1ccccc1)c1c(O)c2ccccc2oc1=O", "RA%, 50 μM, 60 min": "7 ± 0.4%"}
{"compound": "CC(=NNC(=O)c1ccc(Cl)cc1)c1c(O)c2ccccc2oc1=O", "RA%, 50 μM, 60 min": "10 ± 0.5%"}
{"compound": "CC(=NNC(=O)c1ccncc1)c1c(O)c2ccccc2oc1=O", "RA%, 50 μM, 60 min": "8 ± 0.2%"}
{"compound": "CC(=NNC(=O)c1ccc(C)cc1)c1c(O)c2ccccc2oc1=O", "RA%, 50 μM, 60 min": "10 ± 0.2%"}
{"compound": "CC(=O)NN=C(C)c1c(O)c2ccccc2oc1=O", "RA%, 50 μM, 60 min": "7 ± 0.3%"}
{"compound": "CC(=NNC(=O)Cc1ccccc1)c1c(O)c2ccccc2oc1=O", "RA%, 50 μM, 60 min": "7 ± 0.1%"}

---

- procedure.summary: Reducing activity of the DPPH stable free radical (RA%)
- experimental.context: DPPH 0.05 mM in ethanol; compound 100 μM; 60 min

{"compound": "CC(=O)NN=C(C)c1c(O)c2ccccc2oc1=O [2a]", "units.label": "%", "RA%, 100 μM, 60 min": 24}
{"compound": "CC(=NNC(=O)c1ccc(O)cc1)c1c(O)c2ccccc2oc1=O [2f]", "units.label": "%", "RA%, 100 μM, 60 min": 26}
{"compound": "CC(=NNC(=O)c1ccccc1O)c1c(O)c2ccccc2oc1=O [2i]", "units.label": "%", "RA%, 100 μM, 60 min": 29}
{"compound": "CC(=NNC(=O)c1cccs1)c1c(O)c2ccccc2oc1=O [2k]", "units.label": "%", "RA%, 100 μM, 60 min": 30}
{"compound": "CC(=NNC(=O)Cc1ccccc1)c1c(O)c2ccccc2oc1=O [2b]", "units.label": "%", "RA%, 100 μM, 60 min": 29}
{"compound": "CC(=NNC(=O)c1ccc(N)cc1)c1c(O)c2ccccc2oc1=O [2g]", "units.label": "%", "RA%, 100 μM, 60 min": 31}
